test system: SK-MEL-28; assay: NCI tumour cell line growth inhibition, 48 h
The source made the active and inactive calls. Rule as the data show it: active = GI50 up to about 1.1 µM and inactive = higher.
Write down one outcome, taken from true = active, false = inactive

Data request: Entry `O=C(CSc1nc2ccccc2c2ccccc12)c1ccccc1` : call = ?
Data returned: false

Data request: Entry `O=[N+]([O-])c1ccc(Sc2c3ccccc3nc3ccccc23)nc1` : call = ?
Data returned: false

Data request: Entry `Cc1ccc(NNc2cc(=O)[nH]c(=O)[nH]2)cc1Cl` : call = ?
Data returned: false

Data request: Entry COc1ccc(C(=O)CC(c2ccc(OC)c(OC)c2)c2c(O)oc3ccccc3c2=O)cc1OC (configuration not stated) : call = ?
Data returned: false

Data request: Entry `Cc1c2ccnc(C(F)(F)F)c2cc2c1[nH]c1ccccc12` : call = ?
Data returned: false

Data request: Entry `CN(C)c1ccc(/C=N\NC(=O)Nc2cccc3ccccc23)cc1` : call = ?
Data returned: false

Data request: Entry `N#CCC(=O)Nc1cccc(C(F)(F)F)c1` : call = ?
Data returned: false

Data request: Entry `CCCSc1ccc2[nH]c(N3C(=O)/C(=C/c4cc(OC)c(OC)c(OC)c4)N=C3c3ccccc3)cc2c1` : call = ?
Data returned: false

Data request: Entry `O=c1[nH]nc(Cc2ccc(Cl)cc2)n1/N=C\c1ccc(/C=N/n2c(Cc3ccc(Cl)cc3)n[nH]c2=O)cc1` : call = ?
Data returned: false

Data request: Entry O=C(CC(=O)N1N=C(N2CCCCC2)CC1c1ccccc1)Nc1ccccc1 (configuration not stated) : call = ?
Data returned: false

Data request: Entry `Cc1ccc(/N=C/C=C(\Nc2ccc(C)cc2)c2ccc3ccccc3c2)cc1` : call = ?
Data returned: true

Data request: Entry COP(=O)(OC)C(N)CCSC (configuration not stated) : call = ?
Data returned: false

---

test system: K562; experiment: NCI tumour cell line growth inhibition, 48 h
Calls of active or inactive are those of the source. Rule as the data show it: active = GI50 up to about 1.1 µM and inactive = higher.
READOUT_KIND: GI50

Response field GI50 (K562) for item `CN(C(=O)c1ccc([N+](=O)[O-])cc1)c1ccccc1` : > 10 µM (inactive)

Response field GI50 (K562) for item `Cn1c2cc(Cl)ccc2c2ccc3c(c21)C(=O)C=CC3=O` : 3.4 µM (inactive)

Response field GI50 (K562) for item `Cc1cc(N2CCCCC2)nc2ccc(Cc3ccc4nc(N5CCCCC5)cc(C)c4c3)cc12` : 32.1 µM (inactive)

Response field GI50 (K562) for item CC(=O)C1=NN(c2ccccc2)C2(S1)SC(c1ccccc1)(c1ccccc1)c1ccccc12 (stereo not given) : 32.4 µM (inactive)

Response field GI50 (K562) for item `Cc1ccc(NC(=O)CCCC(=O)CC(=O)c2ccc(Br)cc2)cc1` : > 100 µM (inactive)

Response field GI50 (K562) for item `O=CC[C@H]1C(=O)C[C@@H]2CCC[C@@H]21` : 34.2 µM (inactive)

Response field GI50 (K562) for item `O=C(NCCCCNCCCNC(=O)c1cc(-c2ccccc2)nc2ccccc12)c1cc(-c2ccccc2)nc2ccccc12` : 1.81 µM (inactive)

Response field GI50 (K562) for item O=C1c2ccccc2C(=O)N1c1nc(-c2ccc(Cl)cc2)cc(N2N=C(c3ccc(Br)cc3)CC2c2ccccc2)n1 (stereo not given) : 3.08 µM (inactive)

Response field GI50 (K562) for item `C/C(=N\NC(N)=S)c1ccc(C)c(C)c1` : 36.6 µM (inactive)

Response field GI50 (K562) for item CCCCCCCCCCCCCC(=O)O.O=CC(O)C(O)C(OC1OC(CO)C(O)C(O)C1O)C(O)CO (stereo not given) : 26.4 µM (inactive)

---

tested on: NCI-H522; test: NCI tumour cell line growth inhibition, 48 h
Activity calls are given as the source filed them. Cut-off read from the data, not from the text of the source: active = GI50 up to about 1.1 µM and inactive = higher.
Write down one outcome, taken from Y for active, N for inactive

Data request: Entry `O=c1cc(NNc2cccc3ccccc23)[nH]c(=O)[nH]1` : call = ?
Data returned: N

Data request: Entry COc1cc([C@@H]2c3cc4c(cc3[C@@H](NC(=O)c3cccc(C#N)c3)C3COC(=O)[C@@H]32)OCO4)cc(OC)c1O (some centres undefined) : call = ?
Data returned: Y

Data request: Entry `O=C1CN(c2ccc(Cl)cc2)C(=O)CN1NCNN1CC(=O)N(c2ccc(Cl)cc2)CC1=O` : call = ?
Data returned: N

Data request: Entry `O=c1cc(-c2ccccc2)[nH]c2cc(Cl)cc(Cl)c12` : call = ?
Data returned: N

Data request: Entry Cc1cc(O)nc(NNC(C#N)c2cccc([N+](=O)[O-])c2)n1 (centres undefined) : call = ?
Data returned: N

Data request: Entry `CCCn1c(CN(Cc2nc3ccccc3n2CCC)Cc2nc3ccccc3n2CCC)nc2ccccc21` : call = ?
Data returned: N

Data request: Entry COc1ccc2nc(-c3cccs3)cc(C(O)CN3CCSCC3)c2c1 (centres undefined) : call = ?
Data returned: N

Data request: Entry `C1=C\CCCCN2C[C@H]3CCCC/C=C\CCCCN4CC[C@@H]([C@H](CCCCCC/1)C4)[C@H](C3)C2` : call = ?
Data returned: N

Data request: Entry CC1(C)CCCC2(C)[C@@H]1CC[C@]13C[C@](C)(CC[C@@H]21)[C@@H]3CO (some centres undefined) : call = ?
Data returned: N

---

tested on: LOX IMVI; test: NCI tumour cell line growth inhibition, 48 h
Calls of active or inactive are those of the source. Cut-off read from the data, not from the text of the source: active = GI50 up to about 1.1 µM and inactive = higher.
READOUT_KIND: GI50

GI50 recorded for this compound, Cc1cc(O)nc(NNC(C#N)c2cccc([N+](=O)[O-])c2)n1 (stereo not given) , is > 100 µM (inactive)

GI50 recorded for this compound, `CCC1(CC)C(=O)N(C(=O)c2ccc(C)cc2)N(C(=O)c2ccc(C)cc2)C1=O` , is 33.2 µM (inactive)

GI50 recorded for this compound, Cc1csc2c(=O)n(C3OC(CO)C(O)C3O)c(=O)[nH]c12 (stereo not given) , is > 100 µM (inactive)

GI50 recorded for this compound, `CCOC(=O)O/N=C1/C(=C2/C(=O)Nc3ccccc32)Nc2ccccc21` , is 4.8 µM (inactive)

GI50 recorded for this compound, `O=C1/C(=N\NC(=S)NC2CCCCC2)c2cc([N+](=O)[O-])ccc2N1CN1CCOCC1` , is 5.04 µM (inactive)

GI50 recorded for this compound, `Cc1ccc2c(c1)C(=O)/C(=N/Nc1ccc(Cl)cc1)CCO2` , is 35.2 µM (inactive)

GI50 recorded for this compound, `COC(=O)c1c(O)ccc2c1c1c(n2-c2ccc(OC)cc2)C(=O)c2ccccc2C1=O` , is 21.7 µM (inactive)

GI50 recorded for this compound, `CC(=O)NNc1nc(C)c(C(=O)/C=C/c2ccc(/C=C/C(=O)c3sc(NNC(C)=O)nc3C)cc2)s1` , is > 100 µM (inactive)

GI50 recorded for this compound, COC(=O)CC1C=CC(C)(OC)OO1 (stereo not given) , is 48.3 µM (inactive)

GI50 recorded for this compound, CC(=O)OCC12CN(C#N)C3C4COC(CC41)C1(C(=O)N(C)c4ccccc41)C32 (stereo not given) , is 20.6 µM (inactive)

---

system: SW-620; experiment: NCI tumour cell line growth inhibition, 48 h
Activity calls are given as the source filed them. No stated cut-off is given here; in the data, active = GI50 up to about 1.1 µM and inactive = higher.
Write down one outcome, taken from class 1 = active, class 0 = inactive

Data request: Entry `CC(=O)O[C@H]1C(=O)[C@@]2(C)[C@H]([C@H](OC(=O)c3cccc([N+](=O)[O-])c3)[C@]3(O)C[C@H](OC(=O)[C@H](O)[C@@H](NC(=O)c4ccccc4)c4ccccc4)C(C)=C1C3(C)C)[C@]1(OC(C)=O)CO[C@@H]1C[C@@H]2O` : call = ?
Data returned: class 1

Data request: Entry `O=C(CSc1nc2ccccc2c2ccccc12)c1ccccc1` : call = ?
Data returned: class 0

Data request: Entry CCCP1(=O)C=C(C)C(=C(Cl)Cl)C(C)=C1 (configuration not stated) : call = ?
Data returned: class 0

Data request: Entry O=C(NC(Cc1ccccc1)(Cc1ccc(O)cn1)C(=O)O)c1ccccc1 (configuration not stated) : call = ?
Data returned: class 0

Data request: Entry C[N+]12C=CC=C1C(N1CCCC1)c1scc(-c3ccc(Br)cc3)c12 (configuration not stated) : call = ?
Data returned: class 0

Data request: Entry CCOC(=O)C1CCC(=O)N1C(=O)c1cccc(Cl)c1 (configuration not stated) : call = ?
Data returned: class 0

Data request: Entry `Nc1[nH]nc2ccccc12` : call = ?
Data returned: class 0

Data request: Entry CN(C)CC(/C(Cc1ccccc1)=N\NC(=S)NN)c1ccccc1 (configuration not stated) : call = ?
Data returned: class 0

Data request: Entry O=C(O)C1OC(Oc2cc(O)c3c(=O)cc(-c4ccc(O)cc4)oc3c2)C(O)C(O)C1O (configuration not stated) : call = ?
Data returned: class 0

Data request: Entry `O=CC[C@H]1C(=O)C[C@@H]2CCC[C@@H]21` : call = ?
Data returned: class 0

Data request: Entry `Cc1ccc(N)c(S)c1` : call = ?
Data returned: class 0

Data request: Entry `O=C1CC2(CCNCC2)C(=O)N1N1CCCC1` : call = ?
Data returned: class 0

Data request: Entry CC1=CP(=O)(OC(C)C)C=C(C)C1=C(Cl)Cl (configuration not stated) : call = ?
Data returned: class 0

Data request: Entry Cc1cc(Cl)ccc1NC1=NC(=O)C(CC(=O)Nc2ccc(Cl)cc2Cl)S1 (configuration not stated) : call = ?
Data returned: class 0

Data request: Entry O=C(CC(=O)N1N=C(N2CCCCC2)CC1c1ccccc1)Nc1ccccc1 (configuration not stated) : call = ?
Data returned: class 0

Data request: Entry CC1(C)OC(=S)N(c2ccccc2)C12C=Cc1ccccc1O2 (configuration not stated) : call = ?
Data returned: class 0

Data request: Entry `CCCCCCCCCCCC(=O)OCCOCCOCCOCCOCCOCc1ccccc1` : call = ?
Data returned: class 0

Data request: Entry `O=C(O)CCCc1cc2c(s1)-c1cccc3cccc-2c13` : call = ?
Data returned: class 0

Data request: Entry COC(=O)C1=C(C(=O)OC)C2(c3ccccc3)c3ccccc3C(=O)C1N2C1CCCCC1 (configuration not stated) : call = ?
Data returned: class 0

Data request: Entry `Cc1n[nH]c(=O)n1/N=C/c1ccco1` : call = ?
Data returned: class 0

Data request: Entry NC1C=NNC1=O (configuration not stated) : call = ?
Data returned: class 0

Data request: Entry `COC(=O)[C@@H]1C[C@H]([Se]c2ccccc2)CN1C(=O)OCc1ccccc1` : call = ?
Data returned: class 0
